Entries and their apparent KD of MS2 coat protein values follow.
System: MS2 coat protein
METHOD: apparent KD of MS2 coat protein; designed switch direction (-1 OFF switch, 1 ON switch): 1; higher = weaker reporter binding
CONDITION PARAMETERS: input ligand: microRNA oligo, concentration not stated
Give the value, in units of µM, as a plain number.

Worked examples follow.
- SEQUENCE DATA: "GGUAGGUUACUACCAAUACAUGAGGAUCACCCAUGUUAUCAUGAGGAUAUGGUACCUAUUUGGUACCAGAAGGCAUGUAUAAUU [Fiskers NG3ss - 19] (Eterna round: R96, puzzle: Same State NG 3)"
  MEASURED TARGET: "MS2 coat protein"
  apparent KD of MS2 coat protein / µM: 0.0626
- SEQUENCE DATA: "GUUACAUGAGGAUCACCCAUGUAUGUGUGGGAGUAAGUGUCUUAGGAUAUCUAUUGUUUAAAUUAAGAGAAGGAAGAUUGUUGU [JMF's solution 13] (Eterna round: R96, puzzle: Same State NG 3)"
  MEASURED TARGET: "MS2 coat protein"
  apparent KD of MS2 coat protein / µM: 0.0843
- SEQUENCE DATA: "CGUCGUUUGAUAGGAUAUCGCUAUACAUGAGGAUCACCCAUGUUUACCACGCUGGUUUUUCAUUCCGAGAAGGAUUCUGAUGUU [salish99_SSNG02_r04_021] (Eterna round: R96, puzzle: Same State NG 2)"
  MEASURED TARGET: "MS2 coat protein"
  apparent KD of MS2 coat protein / µM: 0.026
- SEQUENCE DATA: "AUUGCUUUCGCAGGAUAUGAUGCGAAAAUUGCGUCAGAAGGGUGGAGUCUCUCAUUGCUAGAGGACAUGAGGAUCACCCAUGUC [SameState NG1 #85] (Eterna round: R96, puzzle: Same State NG 1)"
  MEASURED TARGET: "MS2 coat protein"
  apparent KD of MS2 coat protein / µM: 0.309

# lookup: CAAUAAUGUGGAGGAUAUGGGAGGUCAACACAUGAGGAUCACCCAUGUAGAUAGUGAGGCCAAGCCUAGAAGGCCACAAUCAGC [Eternabot solution 20] (Eterna round: R96, puzzle: Same State NG 2) on MS2 coat protein, apparent KD of MS2 coat protein = 0.0655

# lookup: GGUAGGUUACUACCAACACAUGAGGAUCACCCAUGUUUUGGGAAGGAUAUGGUACCUAUUUGGUACCAGAAGGUCCAGUUAAUU [Fiskers NG3ss - 17] (Eterna round: R96, puzzle: Same State NG 3) on MS2 coat protein, apparent KD of MS2 coat protein = 0.0666

# lookup: UUGCUCGUGUGAGGAUAUGCCGCCGUUUCGGCUGCAGAAGGUACUGUAAUACAUGAGGAUCACCCAUGUCUCUGUUGUUUCGUG [salish99_SSNG1_r04_934] (Eterna round: R96, puzzle: Same State NG 1) on MS2 coat protein, apparent KD of MS2 coat protein = 0.0164

---

Tested on: MS2 coat protein
METHOD: apparent KD of MS2 coat protein, switch ON state; designed switch direction (-1 OFF switch, 1 ON switch): 1; higher = weaker reporter binding
CONDITION PARAMETERS: FMN input: 0 or 200 uM; Eterna round: R93 (includes R88 designs)
Entries and their apparent KD of MS2 coat protein values follow.
Give the value, in units of nM, as a plain number.

- SEQUENCE DATA: "AAAAAACAUGAGGAUCACCCAUGUGAGAACAUGGGAGGAUAUACGAGGACGAGAGUCAAGGUAGAAGGCCUAAAAG [Garnet 73]"
  UNIT TAG: "nM"
  apparent KD of MS2 coat protein: 50.1
- SEQUENCE DATA: "AAUAAUUAUAUGGAGGAUAUCGGUAAUAAGACAUGAGGAUCACCCAUGUAAUAAGGUUAAAUAAACGAGAAGGCCAAGGGUGAAA [JR_SS002_Sub005]"
  UNIT TAG: "nM"
  apparent KD of MS2 coat protein: 59.7
- SEQUENCE DATA: "AGAAAUAAAAGAGAGGAUAUCCAAAAGAAAACAUGAGGAUCACCCAUGUAAAAGAAAAUAAAAUGGGAGAAGGCUCAAUAAAAGA [Modifying Jieux]"
  UNIT TAG: "nM"
  apparent KD of MS2 coat protein: 17.9
- SEQUENCE DATA: "UGGAGACAUGAGGAUCACCCAUGUGAGAAGAGGCGAGGAUAUCGAAAGAAAGAAGAGAAACGAGAAGGCGCGAGAU [salish99-SS1-034]"
  UNIT TAG: "nM"
  apparent KD of MS2 coat protein: 21
- SEQUENCE DATA: "UAUCAUUACACGAAGGAUAUCGAUAAUUGAACAUGAGGAUCACCCAUGUGAUAUAUAAUACAGUUCGAGAAGGUCGAGGGUGAAG [JR_SS002_Sub704]"
  UNIT TAG: "nM"
  apparent KD of MS2 coat protein: 17.8

Per the records, this sequence ( GAUAGGAAGAGAGAGGAUAUCCAAAGGAAAACAUGAGGAUCACCCAUGUAAAAGGUAGGAAAUUGGGAGAAGGCUCAAGAGAGAG [salish99-ss2-075] ) has apparent KD of MS2 coat protein equal to 11.6

Per the records, this sequence ( UGAAGACAUGAGGAUCACCCAUGUGGGAAUAUGGGAGGAUAUACAAAGACGAGAGUCAGAGUAGAAGGCCUAGGAA [salish99-ss1-95] ) has apparent KD of MS2 coat protein equal to 28.5

Per the records, this sequence ( AGAAAUAAAACGCAGGAUAUCCAAAAGAAAACAUGAGGAUCACCCAUGUAAAAGAAAAUAAAAUGGGAGAAGGGCGAAAUAAAGA [Mat - Same State 2 - Eli mod - D92] ) has apparent KD of MS2 coat protein equal to 19.3

Per the records, this sequence ( AAAAGACAUGAGGAUCACCCAUGUGAAAACGUGCGAGGAUAUGUAUGGAAACUAUACUGUACAGAAGGCGCAUGUC [SS1 - 81] ) has apparent KD of MS2 coat protein equal to 19.9
